TARGET_UNDER_TEST: human muscarinic M2 receptor (Homo sapiens)
Sequence (P08172 1-466): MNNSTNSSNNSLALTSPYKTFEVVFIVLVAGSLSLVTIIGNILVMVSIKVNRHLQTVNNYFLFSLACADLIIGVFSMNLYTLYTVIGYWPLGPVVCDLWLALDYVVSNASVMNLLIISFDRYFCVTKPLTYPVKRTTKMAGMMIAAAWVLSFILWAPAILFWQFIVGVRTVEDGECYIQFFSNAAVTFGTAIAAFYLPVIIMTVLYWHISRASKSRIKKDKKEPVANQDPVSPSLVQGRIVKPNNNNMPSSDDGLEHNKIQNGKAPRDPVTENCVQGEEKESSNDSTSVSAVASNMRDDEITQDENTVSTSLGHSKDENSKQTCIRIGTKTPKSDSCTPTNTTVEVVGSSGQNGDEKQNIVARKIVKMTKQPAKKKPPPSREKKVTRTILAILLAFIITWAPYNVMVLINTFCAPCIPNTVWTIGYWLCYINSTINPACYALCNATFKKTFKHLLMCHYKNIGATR
PROTOCOL_TEXT: Alphascreen Surefire phospho-ERK1/2 functional assay, M2
ASSAY_CONTEXT: CHO, read-out: M2 % Emax cf. ACh, CHO cells stably expressing human M2; Emax relative to ACh
ENDPOINT_NAME: Emax (%)

[I] CCCN1C(=O)OC2(CCN(C3CC4(CCN(C(=O)OCC)C4)C3)CC2)C1(C)C (single isomer, unassigned) [4-37 Isomer 1]
[II] CCN1NC(=O)CC12CCN(C1CC3(CCN(C(=O)OC)C3)C1)CC2 (single isomer, unassigned) [6-1 Isomer 2]
[III] CCOC(=O)N1CCC2(CC(N3CCC4(CC3)CC(=O)NC4C)C2)C1 (single isomer, unassigned) [3-3 Isomer 2]
Request: Rank descending by Emax. Your task in answering is to list the labels in the requested order.
Response: II, I, III

* * *

TARGET_UNDER_TEST: human muscarinic M4 receptor (Homo sapiens, UniProt P08173)
Construct: expressed in transfected cells
Sequence (P08173 whole entry): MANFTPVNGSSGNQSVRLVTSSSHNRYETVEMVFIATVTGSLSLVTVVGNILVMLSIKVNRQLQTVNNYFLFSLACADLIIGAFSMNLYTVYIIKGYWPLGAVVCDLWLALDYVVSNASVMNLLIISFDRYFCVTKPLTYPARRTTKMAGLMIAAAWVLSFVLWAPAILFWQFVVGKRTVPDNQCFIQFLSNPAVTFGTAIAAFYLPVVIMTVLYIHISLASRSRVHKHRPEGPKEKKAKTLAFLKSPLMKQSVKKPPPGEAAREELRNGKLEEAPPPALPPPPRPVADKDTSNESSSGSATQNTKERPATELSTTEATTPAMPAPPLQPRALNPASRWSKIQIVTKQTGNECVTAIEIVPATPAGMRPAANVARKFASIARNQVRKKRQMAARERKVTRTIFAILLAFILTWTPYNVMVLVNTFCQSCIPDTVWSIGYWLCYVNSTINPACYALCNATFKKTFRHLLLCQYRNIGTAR
PROTOCOL_TEXT: Alphascreen Surefire phospho-ERK1/2 functional assay, M4
Type: cell-based
ASSAY_CONTEXT: CHO cells stably expressing human M4; phospho-ERK1/2; read-out: pEC50 M4 (converted)
ENDPOINT_NAME: EC50 (nM)

// known answers, use as guide
Request: Which measured EC50 value corresponds to CCOC(=O)N1CCC2(CC(N3CCC4(CC3)CNC(=O)C4)C2)C1 (single isomer, unassigned) [3-2 Isomer 2] ?
Response: 20

Request: Query CCOC(=O)N1CCC2(CC(N3CCC4(CC3)OC(=O)NC4C3CCC3)C2)C1 (single isomer, unassigned) [4-15 Isomer 1 (racemic)] next
Response: 158

Request: Also COC(=O)N1CCC2(CC(N3CCC4(CC3)CC(=O)NC4Cc3ccccc3)C2)C1 (single isomer, unassigned) [3-7 Isomer 2] ?
Response: 79.4

Request: Then this compound: CCOC(=O)N1CC2(CC(N3CCC4(CC3)OC(=O)N(CC)C4CC)C2)C1 (racemic) [2-2 racemic]
Response: 200

Request: Likewise for CCOC(=O)N1CCC2(CC(N3CCC4(CC3)OC(=O)NC4(C)C)C2)C1 (single isomer, unassigned) [4-27 Isomer 1] ?
Response: 251

[1] CCOC(=O)N1CCC2(CC(N3CCC4(CC3)OC(=O)N(CCF)C4(C)C)C2)C1 (single isomer, unassigned) [4-40 Isomer 2]
[2] CCOC(=O)N1CCC2(CC(N3CCC4(CC3)CC(=O)NN4Cc3ccccc3)C2)C1 (single isomer, unassigned) [6-6 Isomer 2]
Request: // which entry has the larger EC50 value, 1 or 2 ? Respond with the label that goes with your answer.
Response: 2
(2: 316 nM, 1: 39.8 nM)
